- Tested on: SNB-19 CNS
- assay-explanation: NCI-60 one-dose screen, 48 h (100 = growth as untreated, 0 = no growth, -100 = all killed)
- conditions: 10 µM
Compounds without any hit were thinned out: in the full panel of roughly 83,000, 20% have a hit.
reported-property: growth (%)

• Clc1ccc(-c2cn(-c3ccccc3)c(-c3ccccc3)n2)c(Cl)c1 = 43.7
• CC(=O)OCc1cc(-c2nc3ccccc3[nH]c2=O)nn1-c1ccc(Cl)cc1 = 89.4
• Nc1nc(N)c2c(ccc3nccc32)[nH]1 = 62.4
• Cn1c(C(N)=O)cc2c1-c1nc(Nc3ccccc3)ncc1CCC2 = 58.4
• N=C(N)c1ccc(-c2ccc(-c3cccs3)o2)cc1 = 73.7
• COc1cc(NC(=O)CCSc2nc3ccc(Cl)cc3c(=O)n2Cc2ccccc2)cc(OC)c1OC = 92.1

Taken from PubChem BioAssay (NCI).
